read-out: Intercellular Adhesion Molecule 1 (ICAM1), ICAM1 (gene 3383); experiment: BSK_KF3CT_ICAM1: BioMAP Diversity Plus: KF3CT Assay for Intercellular Adhesion Molecule 1 (ICAM1) Biomarker Activity (AID 2283067); details: primary human keratinocytes with fibroblasts; actives raise or lower the signal
Calls of active or inactive are those of the source. How the source made its calls: active means hit-call score of the fitted dose curve at least 0.9, where 1 is the maximum; inactive means score below 0.9.
Outcomes you can answer with include only these: 1 = active, -1 = inactive

• CCOP(=S)(Oc1cnc(C(C)(C)C)nc1)OC(C)C (stereo unspecified) = -1
• CSC1=N[C@@](C)(c2ccccc2)C(=O)N1Nc1ccccc1 = -1
• CCC(CC)Nc1c([N+](=O)[O-])cc(C)c(C)c1[N+](=O)[O-] = -1
• CCCCSP(=O)(SCCCC)SCCCC = -1
• COP(=O)(OC)SCn1c(=O)oc2cc(Cl)cnc21 = 1

Could you please tell me the result logged for CCOP(=O)(NC(C)C)Oc1ccc(SC)c(C)c1 (stereo unspecified) in this assay?
-1

Could you please tell me the result logged for `CON=C(C(=O)OC)c1ccccc1CON=C(C)c1cccc(C(F)(F)F)c1` in this assay?
-1

Could you please tell me the result logged for `O=c1ccc(=O)[nH][nH]1` in this assay?
-1

Could you please tell me the result logged for `COc1ccc(C(=CC(=O)N2CCOCC2)c2ccc(Cl)cc2)cc1OC` in this assay?
-1

Could you please tell me the result logged for C#CCC1=C(C)C(OC(=O)C2C(C=C(C)C)C2(C)C)CC1=O (stereo unspecified) in this assay?
-1

Could you please tell me the result logged for `C[Si](Cn1cncn1)(c1ccc(F)cc1)c1ccc(F)cc1` in this assay?
-1

Could you please tell me the result logged for CC(COc1ccc(Oc2ccccc2)cc1)Oc1ccccn1 (stereo unspecified) in this assay?
-1
